Biological target: Ecm22 (UniProt Q05958)
Sequence: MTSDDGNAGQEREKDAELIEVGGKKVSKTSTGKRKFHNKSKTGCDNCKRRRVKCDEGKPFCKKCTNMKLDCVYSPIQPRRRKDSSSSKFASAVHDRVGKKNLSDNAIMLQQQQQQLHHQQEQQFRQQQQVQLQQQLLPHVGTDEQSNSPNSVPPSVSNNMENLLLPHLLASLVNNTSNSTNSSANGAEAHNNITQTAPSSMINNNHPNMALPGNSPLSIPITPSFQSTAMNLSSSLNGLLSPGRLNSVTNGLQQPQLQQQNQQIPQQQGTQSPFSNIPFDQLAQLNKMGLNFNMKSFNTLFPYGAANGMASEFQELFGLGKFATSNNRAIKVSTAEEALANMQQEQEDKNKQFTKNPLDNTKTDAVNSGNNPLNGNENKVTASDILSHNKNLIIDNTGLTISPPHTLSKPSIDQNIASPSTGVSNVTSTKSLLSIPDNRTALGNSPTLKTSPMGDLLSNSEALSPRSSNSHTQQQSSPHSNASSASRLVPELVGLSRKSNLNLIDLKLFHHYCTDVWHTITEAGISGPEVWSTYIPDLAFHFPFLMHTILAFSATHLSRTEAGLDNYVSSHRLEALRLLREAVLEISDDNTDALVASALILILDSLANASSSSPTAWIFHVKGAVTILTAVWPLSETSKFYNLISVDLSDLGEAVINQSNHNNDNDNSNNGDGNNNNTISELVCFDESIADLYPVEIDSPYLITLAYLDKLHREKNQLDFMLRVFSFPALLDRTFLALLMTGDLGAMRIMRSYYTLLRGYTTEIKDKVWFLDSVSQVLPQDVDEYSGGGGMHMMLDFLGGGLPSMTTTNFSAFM
Assay: PBM E-score (8-mer binding enrichment) (E-score (-0.5 to 0.5)); higher = stronger / more preferred TF binding
Settings: protein concentration: 200 nM; construct: GST-full length
Whole data set: some 33,000 sequences, median “E-score (-0.5 to 0.5)” near -0.041, cut for the highest 2% near 0.37. The entries come from a sample that favours the highest values as a whole.
METRIC: PBM E-score
Enter a number only.

Check out these entries, answers already filled in.
SEQUENCE_RECORD | PBM E-score
ACTCATGC | -0.0706
GACGAGGA | 0.175
AATACGTA | 0.228

From here, focus on the item given below.
INPUT: Using known records, supply PBM E-score for GTCCGAGA
OUTPUT: 0.253

Taken from the supplement of paper PMC3334620.
